I'd appreciate it if you could supply Ki values for the items below.
- TESTED_TARGET: delta-opioid receptor (DOR) (Rattus norvegicus, UniProt P33533)
- Construct: Rat cortices were homogenized using 50 mM Tris, pH 7.4, 10 mM MgCl2-6H2O, 200 µM PMSF; from tissue; host or cells: rat cortex membranes
- Sequence (P33533 whole entry): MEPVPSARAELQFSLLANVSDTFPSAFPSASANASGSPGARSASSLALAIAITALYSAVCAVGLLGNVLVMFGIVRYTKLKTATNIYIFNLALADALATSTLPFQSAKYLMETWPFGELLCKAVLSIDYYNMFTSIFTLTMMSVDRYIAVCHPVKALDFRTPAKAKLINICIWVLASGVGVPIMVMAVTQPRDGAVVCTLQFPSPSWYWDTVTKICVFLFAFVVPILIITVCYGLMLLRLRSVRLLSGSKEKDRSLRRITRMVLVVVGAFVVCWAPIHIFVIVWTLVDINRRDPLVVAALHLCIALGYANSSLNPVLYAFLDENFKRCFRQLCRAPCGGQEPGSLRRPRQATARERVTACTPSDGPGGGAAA
- TEST_DETAILS: DOR radioligand competition binding assay ([3H]-DPDPE)
- RUN_PARAMETERS: Delta screening results, mean of two experiments; read-out: Ki
Numbers only, in nM.

Some compounds with known Ki results, for comparison:
Cc1cc(O)cc(C)c1C[C@H]1CNC(=N)N1C[C@H](Cc1ccccc1)N1C[C@H](Cc2ccccc2)NC1=N : 543
Cc1cc(O)cc(C)c1C[C@H]1CN([C@@H](Cc2c(C)cc(O)cc2C)CN2C(=N)NC[C@@H]2C)C(=N)N1 : 265
C[C@H]1CNC(=N)N1C[C@H](Cc1ccc(O)cc1)N1C[C@H](Cc2ccc(O)cc2)NC1=N : 3800

Need Ki for each of these compounds.
1. Cc1cc(O)cc(C)c1C[C@H]1CN([C@@H](Cc2c(C)cc(O)cc2C)CN2C(=N)NC[C@@H]2Cc2ccccc2)C(=N)N1
2. Cc1cc(O)cc(C)c1C[C@H]1CNC(=N)N1C[C@H](Cc1ccccc1)N1C[C@H](Cc2ccc(O)cc2)NC1=N
3. CC(C)C[C@@H](CN1C(=N)NC[C@@H]1Cc1ccccc1)N1C[C@H](Cc2ccc(O)cc2)NC1=N
4. Cc1cc(O)cc(C)c1C[C@H]1CN([C@@H](Cc2ccccc2)CN2C(=N)NC[C@@H]2C)C(=N)N1
5. N=C1NC[C@H](Cc2ccccc2)N1C[C@H](Cc1ccc(O)cc1)N1C[C@H](Cc2ccc(O)cc2)NC1=N
6. CC(C)C[C@@H](CN1C(=N)NC[C@@H]1Cc1ccc(O)cc1)N1C[C@H](Cc2ccccc2)NC1=N

### Response
[462, 896, 2210, 3550, 4980, 30500]

Need Ki for each of these compounds.
1. Cc1cc(O)cc(C)c1C[C@H]1CN([C@@H](Cc2c(C)cc(O)cc2C)CN2C(=N)NC[C@@H]2Cc2c(C)cc(O)cc2C)C(=N)N1
2. N=C1NC[C@H](Cc2ccc(O)cc2)N1C[C@H](Cc1ccc(O)cc1)N1C[C@H](Cc2ccccc2)NC1=N
3. Cc1cc(O)cc(C)c1C[C@H]1CN([C@@H](Cc2ccc(O)cc2)CN2C(=N)NC[C@@H]2Cc2c(C)cc(O)cc2C)C(=N)N1
4. Cc1cc(O)cc(C)c1C[C@@H](CN1C(=N)NC[C@@H]1Cc1ccc(O)cc1)N1C[C@H](CC(C)C)NC1=N
5. CC(C)C[C@H]1CN([C@@H](Cc2ccccc2)CN2C(=N)NC[C@@H]2Cc2ccc(O)cc2)C(=N)N1

### Response
[579, 7730, 1300, 1940, 4630]
